# credit: paper PMC5679024

Listed molecules paired with reported half-life
Assay: In vitro mouse serum stability assay
Type: in vitro ADME
Settings: serum
Non-standard residues stand in square brackets, D forms with d. Residues, ends and D or L forms follow the SMILES beside them.
Give your result in min as a bare value.

CC(=O)N[C@@H](Cc1cnc[nH]1)C(=O)N[C@H](Cc1ccccc1)C(=O)N[C@@H](CCCN=C(N)N)C(=O)N[C@@H](Cc1c[nH]c2ccccc12)C(N)=O [CJL-1-14, Ac-His-DPhe-Arg-Trp-NH2]
1010

Now consider a different molecule.
Tell me the measured half-life of CC(=O)N[C@@H](Cc1cnc[nH]1)C(=O)N[C@H](Cc1ccccc1)C(=O)N[C@@H](CCCNC(=N)N)C(=O)N[C@@H](Cc1c[nH]c2ccccc12)C(=O)N1CCC[C@H]1C(=O)NCC(=O)N1CCC[C@H]1C(=O)NCC(=O)N1CCC[C@H]1C(=O)NCC(=O)N1CCC[C@H]1C(=O)NCC(=O)N1CCC[C@H]1C(=O)NCC(=O)N1CCC[C@H]1C(=O)NCC(N)=O [CJL-5-35-1, Ac-His-DPhe-Arg-Trp-(Pro-Gly)6-NH2] (Ac-H[dF]RWPGPGPGPGPGPG-NH2) , please.
6

---

Assay: In vitro mouse serum stability assay
Format: in vitro ADME
Details: mouse serum
METRIC_NAME: remaining at 72 h, 10 µM (%)
Give your result in % as a bare value.

Tell me the measured remaining at 72 h, 10 µM of CC(=O)N[C@@H](Cc1cnc[nH]1)C(=O)N[C@H](Cc1ccccc1)C(=O)N[C@@H](CCCN=C(N)N)C(=O)N[C@@H](Cc1c[nH]c2ccccc12)C(N)=O [CJL-1-14, Ac-His-DPhe-Arg-Trp-NH2] , please.
12

---

Assay: In vitro mouse serum stability assay
Type: in vitro ADME
Conditions: serum
Non-standard residues stand in square brackets, D forms with d. Residues, ends and D or L forms follow the SMILES beside them.
METRIC_NAME: remaining at 0.5 h

Recorded remaining at 0.5 h, per entry:
N=C(N)NCCC[C@H](NC(=O)[C@@H](Cc1ccccc1)NC(=O)[C@H](Cc1cnc[nH]1)NC(=O)CNC(=O)[C@@H]1CCCN1C(=O)CNC(=O)[C@@H]1CCCN1C(=O)CNC(=O)[C@@H]1CCCN1C(=O)CNC(=O)[C@@H]1CCCN1C(=O)CNC(=O)[C@@H]1CCCN1C(=O)CNC(=O)[C@@H]1CCCN1)C(=O)N[C@@H](Cc1c[nH]c2ccccc12)C(N)=O [CJL-1-41, (Pro-Gly)6-His-DPhe-Arg-Trp-NH2] (H-PGPGPGPGPGPGH[dF]RW-NH2)
≤ 2%
CC(=O)N[C@@H](Cc1cnc[nH]1)C(=O)N[C@H](Cc1ccccc1)C(=O)N[C@@H](CCCNC(=N)N)C(=O)N[C@@H](Cc1c[nH]c2ccccc12)C(=O)N1CCC[C@H]1C(=O)NCC(=O)N1CCC[C@H]1C(=O)NCC(=O)N1CCC[C@H]1C(=O)NCC(=O)N1CCC[C@H]1C(=O)NCC(=O)N1CCC[C@H]1C(=O)NCC(=O)N1CCC[C@H]1C(=O)NCC(N)=O [CJL-5-35-1, Ac-His-DPhe-Arg-Trp-(Pro-Gly)6-NH2] (Ac-H[dF]RWPGPGPGPGPGPG-NH2)
≤ 2%

Tell me the measured remaining at 0.5 h of CC(=O)N[C@@H](Cc1cnc[nH]1)C(=O)N[C@H](Cc1ccccc1)C(=O)N[C@@H](CCCNC(=N)N)C(=O)N[C@@H](Cc1c[nH]c2ccccc12)C(=O)N1CCC[C@H]1C(=O)NCC(=O)N1CCC[C@H]1C(=O)NCC(=O)N1CCC[C@H]1C(=O)NCC(=O)N1CCC[C@H]1C(=O)NCC(=O)N1CCC[C@H]1C(=O)NCC(=O)N1CCC[C@H]1C(=O)NCC(=O)N[C@@H](Cc1cnc[nH]1)C(=O)N[C@H](Cc1ccccc1)C(=O)N[C@@H](CCCNC(=N)N)C(=O)N[C@@H](Cc1c[nH]c2ccccc12)C(N)=O [CJL-1-31] (Ac-H[dF]RWPGPGPGPGPGPGH[dF]RW-NH2) , please.
≤ 2%
